System: K562
protocol-description: NCI tumour cell line growth inhibition, 48 h
Calls of active or inactive are those of the source. No stated cut-off is given here; in the data, active = GI50 up to about 1.1 µM and inactive = higher.
Possible outcomes: active, inactive

# compound, cat
measured = [
    ("COc1cc(CNC(=O)CCCCCCCCCCSSCCCCCCCCCCC(=O)NCc2ccc(O)c(OC)c2)ccc1O", "inactive"),
    ("Cc1c2ccnc(C(F)(F)F)c2cc2c1[nH]c1ccccc12", "inactive"),
    ("C#C[C@@H](CCCC)OC(=O)N[C@H](C)c1ccccc1", "inactive"),
    ("CC1=C2C(=O)c3ccccc3C(=O)[C@H]2[C@H]2CCO[C@H]2O1", "inactive"),
    ("CC1(C)OCC(COC(=O)C=[N+]=[N-])O1 (stereo unspecified)", "inactive"),
    ("COC(=O)C1CCc2nnc(-c3cccnc3)n21 (stereo unspecified)", "inactive"),
    ("Cc1cc(NCCCCCCCNc2cc(C)nc3cc([N+](=O)[O-])ccc23)c2ccc([N+](=O)[O-])cc2n1", "inactive"),
    ("N#CC1(C#N)NC(c2ccsc2)C(C#N)(C#N)NC1c1ccsc1 (stereo unspecified)", "inactive"),
    ("Nc1nc(S)c2c(N)n[nH]c2c1C(=O)Nc1ccccc1", "inactive"),
    ("Cc1cc(O)nc(NNC(C#N)c2ccco2)n1 (stereo unspecified)", "inactive"),
    ("O=C1N=C(SC(SC2=NC(=O)C3(NN2)c2ccccc2-c2ccccc23)=C(SC2=NC(=O)C3(NN2)c2ccccc2-c2ccccc23)SC2=NC(=O)C3(NN2)c2ccccc2-c2ccccc23)NNC12c1ccccc1-c1ccccc12", "inactive"),
    ("COC(=O)C1=CCON(c2ccccc2)C1c1ccccc1 (stereo unspecified)", "inactive"),
    ("COc1cc(C(C#N)NNC(=O)Cc2ccccc2)cc(OC)c1OC (stereo unspecified)", "inactive"),
    ("Cc1cccc(Br)[n+]1[O-]", "inactive"),
    ("CCOC(=O)C(Cc1ccc(O)cc1)Nc1nc(=O)c2c(=O)oc(Cl)cc2o1 (stereo unspecified)", "inactive"),
    ("O=C1/C(=N\\NC(=S)NC2CCCCC2)c2cc([N+](=O)[O-])ccc2N1CN1CCOCC1", "inactive"),
    ("O=C1C=C[C@@H](COC2OC(CO)C(O)C(O)C2O)O1 (stereo partly specified)", "inactive"),
    ("O=C(NC(Cc1ccccc1)(Cc1ccc(O)cn1)C(=O)O)c1ccccc1 (stereo unspecified)", "inactive"),
    ("O=C1c2cccnc2S(=O)(=O)N1c1ccc(Oc2ccccc2)cc1", "inactive"),
    ("C=C(C1=CC(=O)C(C)(C)O1)[C@@H]1CC=C([C@@H]2CC[C@H]3[C@@]2(C)CC[C@H]2C(C)(C)C(=O)[C@H](OC(=O)CC(C)(O)CC(=O)O)C[C@]32C)[C@H](O)O1 (stereo partly specified)", "inactive"),
    ("c1cnc2c(c1)-n1cccc1C1(CCSCC1)NN2", "inactive"),
    ("COC(=O)C(Br)C1CCc2ccccc21 (stereo unspecified)", "inactive"),
    ("Clc1ccc(OCc2nnc3n2N=C(c2ccccc2)CS3)c(Cl)c1", "inactive"),
    ("COc1cc(C2S/C(=C/c3ccccc3)C(=O)N2Cc2ccccc2)cc(OC)c1OC (stereo unspecified)", "inactive"),
    ("Cc1cc(-c2ccc(C(=O)C(c3ccccc3)(c3ccccc3)c3ccccc3)[nH]2)on1", "inactive"),
    ("CCOC1c2cc(C(C)C)c(O)c(O)c2[C@@]23CCCC(C)(C)C2C1OC3=O (stereo partly specified)", "inactive"),
    ("COc1cc2c(cc1OC)C13CC[N+]4(C)CC5=CCOC6CC(=O)N2C1C6C5CC34[O-] (stereo unspecified)", "inactive"),
    ("Cc1ccc(CC(C)N)cc1 (stereo unspecified)", "inactive"),
    ("COc1ccc(OC)c(CNc2ccc(C(=O)O)cc2)c1", "inactive"),
    ("Cc1sc(Cc2ccccc2)nc1-c1ccc(N)cc1", "inactive"),
    ("O=C1/C(=C\\c2cccc(Oc3ccccc3)c2)SC(c2ccccc2)N1c1cccc([N+](=O)[O-])c1 (stereo unspecified)", "inactive"),
    ("COc1cc2ncnc(NS(=O)(=O)c3cc4ccccc4s3)c2cc1OC", "inactive"),
    ("CCOc1cc2c(OCc3ccccc3)cc3c4cc(OC)c(OC)cc4c[n+](C)c3c2cc1OC", "inactive"),
    ("CN1CC[C@@H](c2c(O)cc(O)c3c(=O)cc(-c4ccccc4Cl)oc23)[C@@H](O)C1", "active"),
    ("CC(=O)OCCOc1cc2c([nH]c3ccccc32)c(C)c2cccc1-2", "inactive"),
    ("COC(=O)NC1(NC(=O)OC)NC(=O)c2cc(OC)c(OC)c(OC)c2N1", "inactive"),
    ("Fc1ccc(C2(CCCN3CCc4[nH]c5cc(F)ccc5c4C3)OCCO2)cc1", "inactive"),
    ("CC1=NC(=Cc2ccc([N+](=O)[O-])cc2)C(=O)N1n1c(-c2ccccc2)nc2ccccc2c1=O", "inactive"),
    ("Cc1n[nH]c(=O)n1/N=C/c1ccco1", "inactive"),
    ("O=c1[nH]c2ccccc2c2oc(-c3ccccc3)nc12", "inactive"),
    ("N#CCCN(c1ccc(/C=N/c2ccc(C(=O)O)cc2)cc1)S(=O)(=O)c1ccccc1", "inactive"),
]
